Each entry below lists one item and its recorded IC50 value.
# System Name: DCN1 (DCUND1) protein PONY domain (Homo sapiens (Human), UniProt Q96GG9)
# Sequence (Q96GG9 60-248): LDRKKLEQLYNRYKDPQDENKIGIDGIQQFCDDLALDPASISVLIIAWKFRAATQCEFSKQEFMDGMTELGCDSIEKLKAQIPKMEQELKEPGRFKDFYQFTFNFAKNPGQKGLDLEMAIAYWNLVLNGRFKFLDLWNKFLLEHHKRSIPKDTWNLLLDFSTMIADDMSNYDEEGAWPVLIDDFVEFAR
# Experiment Summary: TR-FRET assay, DCN1 binding with FAM-labeled probe
# Conditions: 24 hr after treatment with compound; read-out: TR FRET IC50 24 hr
# Method: A TR-FRET assay was performed to evaluate the ability of the compounds to bind the DCN-1 protein. The TR-FRET assay was designed following the Scott et al. protocol (Scott et al., Nat Chem Biol. 2017 August; 13(8): 850-857. Doi:10.1038/nchembio.2386). […] The TR-FRET ratio between Tb-DCN1 and the FAM-labeled probe was measured in a 384-well opti-plate (Perkin Elmer) using a plate reader (BMG) at 1, 5, and 24 hrs after treatment with compound (final DMSO concentration of 0.1%).
Measurement Label: IC50

INSERT INTO measurements (compound, endpoint_result) VALUES
  ('CCN1C(=O)[C@@H](NC(=O)c2cccc(C(F)(F)F)c2)[C@@H](C2CCCC2)c2c(C(=O)N3CCC[C@H]3C#N)nn(C3CCOCC3)c21', '≤ 200 nM'),
  ('CCN1C(=O)[C@@H](NC(=O)c2cccc(C(F)(F)F)c2)[C@@H](c2ccc(F)cc2)c2c(C/C=C/C(=O)NC)nn(-c3ccccc3)c21 (racemic)', '1000 to 3000 nM'),
  ('CCN1C(=O)[C@@H](NC(=O)c2cccc(C(F)(F)F)c2)[C@@H](C2CC2)c2c(C(=O)N3CCC=C3C#N)nn(C3CCOCC3)c21', '≤ 200 nM'),
  ('CCN1C(=O)[C@H](NC(=O)c2cccc(C(F)(F)F)c2)[C@H](c2ccc(F)cc2)c2c(C(=O)N3CCC[C@H]3C#N)nn(-c3cccc(OCCCN4CCC5(CC4)COC5)c3)c21', '200 to 1000 nM'),
  ('CCN1C(=O)[C@@H](NC(=O)c2ccn(C(F)(F)F)n2)[C@@H](c2ccc(F)cc2)c2c(C(=O)N3CCNC[C@H]3C#N)nn(-c3ccccc3)c21', '≤ 200 nM'),
  ('CCN1C(=O)[C@@H](NC(=O)c2cccc(C(F)(F)F)c2)[C@@H](c2ccc(F)cc2)c2c(CN(C)C(=O)[C@H](C)Cl)nn(-c3ccccc3)c21 (stereo in doubt) [Compound I-33]', '1000 to 3000 nM'),
  ('CCc1cccc(C(=O)N[C@@H]2C(=O)N(CC)c3c(c(C(=O)N4[C@H](C#N)C[C@H]5C[C@H]54)nn3C3CCOCC3)[C@@H]2C2CC2)c1', '≤ 200 nM'),
  ('CCN1C(=O)[C@@H](NC(=O)c2cccc(C(F)(F)F)c2)[C@@H](c2ccc(F)cc2)c2c(CN3C(=O)CC[C@H]3C#N)nn(-c3ccccc3)c21', '1000 to 3000 nM'),
  ('CCN1C(=O)[C@@H](NC(=O)c2cccc(C(F)(F)F)c2)[C@@H](c2ccc(F)cc2)c2c(C/C=C/C(=O)NCCCN(C)C)nn(-c3ccccc3)c21 (racemic)', '200 to 1000 nM'),
  ('CCN1C(=O)[C@@H](NC(=O)c2cccc(C(F)(F)F)c2)[C@@H](c2ccc(F)cc2)c2c(C(=O)N3CC[C@H]3C#N)nn(-c3ccccc3)c21', '≤ 200 nM'),
  ('CCN1C(=O)[C@@H](NC(=O)c2cccc(C(F)(F)F)c2)[C@@H](c2ccc(F)cc2)c2c(C(=O)N(C)[C@@H](C#N)CCN3CCN(C4COC4)CC3)nn(-c3ccccc3)c21', '≤ 200 nM');
